Assignment: determine reported Ratio 2/5 in % for the given molecules.
# assaySystem: SSTR5 (Homo sapiens)
# Sequence (P35346 whole entry): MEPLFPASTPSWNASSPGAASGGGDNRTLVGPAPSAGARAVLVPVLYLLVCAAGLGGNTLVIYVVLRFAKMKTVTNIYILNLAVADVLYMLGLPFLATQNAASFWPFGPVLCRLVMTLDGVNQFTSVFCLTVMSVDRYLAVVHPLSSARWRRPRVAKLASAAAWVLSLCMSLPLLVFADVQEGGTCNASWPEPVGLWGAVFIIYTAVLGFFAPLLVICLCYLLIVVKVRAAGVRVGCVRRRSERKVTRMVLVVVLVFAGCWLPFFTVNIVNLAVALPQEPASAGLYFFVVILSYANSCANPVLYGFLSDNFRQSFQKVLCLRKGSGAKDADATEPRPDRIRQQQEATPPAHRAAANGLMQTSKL
# experiment: Radioligand binding assay on membranes of CHO-K1 cells expressing SSTR5
# experimentalContext: ratio of IC50 SSTR2 / IC50 SSTR5 in %
# Description: Radiolabeling binding assays were carried out as described in the prior art like, e.g. in Gazal S. et al (2002) J. Med. Chem. 45: 1665-1671. […] The protein content was determined by Bradford, and the membrane preparation was diluted in buffer A containing 1 mg/mL bovine serum albumin (BSA) to a final 0.2 or 0.4 mg/mL membrane protein (depending on the specific somatostatin receptor used). […]
Where a SMILES comes first, the peptide text is derived from it. Side-chain parts run from the residue outwards. [ ]: non-standard residue; d: D form. The star is where a group is joined. X1 = CC(C(=O)*)N1CCN(CC(=O)O)CCN(CC(=O)O)CCN(CC(=O)O)CC1; Phe(4-F) = N[C@@H](Cc1ccc(F)cc1)C(=O)O; 1Nal = N[C@@H](Cc1cccc2ccccc12)C(=O)O; NMeF = CN[C@@H](Cc1ccccc1)C(=O)O; 4Pal = N[C@@H](Cc1ccncc1)C(=O)O; Dap = NC[C@H](N)C(=O)O
Numeric only. Scale: %

Recorded Ratio 2/5 in % of CSCC[C@@H]1NC(=O)[C@H]([C@@H](C)O)NC(=O)[C@H](CCCCN)NC(=O)[C@@H](Cc2c[nH]c3ccccc23)NC(=O)[C@H](Cc2ccc(F)cc2)NC(=O)[C@H](Cc2ccccc2)N(C)C1=O [P2292] (cyclo([Phe(4-F)][dW]KTM[NMeF])) , please.
2.0

Recorded Ratio 2/5 in % of CSCC[C@@H]1NC(=O)[C@H]([C@@H](C)O)NC(=O)[C@H](CCCCN)NC(=O)[C@@H](Cc2c[nH]c3ccccc23)NC(=O)[C@H](Cc2ccncc2)NC(=O)[C@H](Cc2ccccc2)N(C)C1=O [P2281, cyclo[(4)Pal-DTrp-Lys-Thr-Met-(NMe)Phe]] (cyclo([4Pal][dW]KTM[NMeF])) , please.
0.36

Recorded Ratio 2/5 in % of CC(C(=O)NCC(=O)NCCCC[C@@H]1NC(=O)[C@H]([C@@H](C)O)NC(=O)[C@H](CCCCN)NC(=O)[C@@H](Cc2c[nH]c3ccccc23)NC(=O)[C@H](Cc2cccc3ccccc23)NC(=O)[C@H](Cc2ccccc2)N(C)C1=O)N1CCN(CC(=O)O)CCN(CC(=O)O)CCN(CC(=O)O)CC1 (stereo partly shown) [P2323] (cyclo([1Nal][dW]KTK([Gly-X1])[NMeF])) , please.
399.1

Recorded Ratio 2/5 in % of CSCC[C@@H]1NC(=O)[C@H](C(C)C)NC(=O)[C@H](CCCCN)NC(=O)[C@@H](Cc2c[nH]c3ccccc23)NC(=O)[C@H](Cc2ccc(O)cc2)NC(=O)[C@H](Cc2ccccc2)N(C)C1=O [P2266, cyclo[Tyr-DTrp-Lys-Val-Met-(NMe)Phe]] (cyclo(Y[dW]KVM[NMeF])) , please.
3.2

Recorded Ratio 2/5 in % of CSCC[C@@H]1NC(=O)[C@H](CN)NC(=O)[C@H](CCCCN)NC(=O)[C@@H](Cc2c[nH]c3ccccc23)NC(=O)[C@H](Cc2ccc(O)cc2)NC(=O)[C@H](Cc2ccccc2)N(C)C1=O [P2267, cyclo[Tyr-DTrp-Lys-Dpr-Met-(NMe)Phe]] (cyclo(Y[dW]K[Dap]M[NMeF])) , please.
1.9

Recorded Ratio 2/5 in % of CSCC[C@@H]1NC(=O)[C@H](C(C)C)NC(=O)[C@H](CCCCN)NC(=O)[C@@H](Cc2c[nH]c3ccccc23)NC(=O)[C@H](Cc2cccc3ccccc23)NC(=O)[C@H](Cc2ccccc2)N(C)C1=O [P2329, cyclo[1Nal-DTrp-Lys-Val-Met-(N-Me)Phe]] (cyclo([1Nal][dW]KVM[NMeF])) , please.
10.5

Recorded Ratio 2/5 in % of C[C@@H](O)[C@@H]1NC(=O)[C@H](CCCCN)NC(=O)[C@@H](Cc2c[nH]c3ccccc23)NC(=O)[C@H](Cc2ccc(O)cc2)NC(=O)[C@H](CCS)N(C)C(=O)[C@H](Cc2ccccc2)NC1=O [P1839, cyclo[Tyr-DTrp-Lys-Thr-Phe-(NMe)hCys], reference compound] , please.
0.15
